Where do the numbers come from? From paper PMC5566973.

assay: Urinary and fecal excretion in rats; type: in vivo, Sprague-Dawley rats; settings: after oral harmaline 40.0 mg/kg, 24 h
propertyMeasured: Cumulative excretion in feces (%) of the analyte
Return type: number; implicit unit %.

// known answers, use as guide
1) COc1ccc2c(c1)[nH]c1c(C)nccc12 [Harmine] = 0.01
2) COc1ccc2c3c([nH]c2c1)C(C)=NCC3 [Harmaline] = 0.14
3) Cc1[nH]ccc2c1[nH]c1cc(=O)ccc12 [Harmol] = 1.24

Now let's try a different one.
Ask | For the compound shown here, CC1=NCCc2c1[nH]c1cc(O)ccc21 [Harmalol] , give the reported Cumulative excretion in feces (%) of the analyte.
Reply | 1.73
